tested_system: Avi-KRAS G12D (1-169) GppNHp/RAF1 RBD-3xFLAG (52-151) (Homo sapiens, UniProt P01116, G12D)
Construct: Avi-KRAS G12D (1-169)
Sequence (P01116 1-169 isoform P01116-2 G12D): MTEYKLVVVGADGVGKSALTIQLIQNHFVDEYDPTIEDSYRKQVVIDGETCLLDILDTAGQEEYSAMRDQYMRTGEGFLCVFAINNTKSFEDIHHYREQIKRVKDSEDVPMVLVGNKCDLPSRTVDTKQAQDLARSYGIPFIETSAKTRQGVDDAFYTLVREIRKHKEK
test: Raf1-KRAS G12D-GppNHP disruption HTRF assay (Biological Example 1)
Type: binding
reported_conditions: KRAS G12D-GppNHp/RAF1 RBD HTRF
pIC50: −log10 of the molar value.
outcome_measure: pIC50

Below: 10 compounds and their reported pIC50.
CCC(=O)N1CC[C@@H](N(C)c2nc(OC[C@@]34CCCN3C[C@H](F)C4)nc3c(F)c(-c4ccc(F)c5sc(N)c(C#N)c45)c(C(F)(F)F)cc23)[C@H]1CC    5.00 to 6.00
C[C@@H]1[C@H](N(C)c2nc(OC[C@@]34CCCN3C[C@H](F)C4)nc3c(F)c(-c4ccc(F)c5sc(N)c(C#N)c45)c(C(F)(F)F)cc23)CCN1C(=O)CF    > 7.00
CC(C)C(=O)N1CC[C@@H](N(C)c2nc(OC[C@@]34CCCN3C[C@H](F)C4)nc3c(F)c(-c4ccc(F)c5sc(N)c(C#N)c45)c(C(F)(F)F)cc23)[C@@H]1C    6.00 to 7.00
CCN(c1nc(OC[C@@]23CCCN2C[C@H](F)C3)nc2c(F)c(-c3ccc(F)c4sc(N)c(C#N)c34)c(C(F)(F)F)cc12)[C@@H]1CCN(C(=O)OC)C1    6.00 to 7.00
N#Cc1c(N)sc2c(F)ccc(-c3c(C(F)(F)F)cc4c(N5C[C@H]6C[C@@H]5[C@@H](O)C6)nc(OC[C@@]56CCCN5C[C@H](F)C6)nc4c3F)c12    5.00 to 6.00
CC(=O)N1C[C@H]2CCCN(c3nc(OC[C@@]45CCCN4C[C@H](F)C5)nc4c(F)c(-c5ccc(F)c6sc(N)c(C#N)c56)c(C(F)(F)F)cc34)[C@H]2C1    5.00 to 6.00
CCN(c1nc(OC[C@@]23CCCN2C[C@H](F)C3)nc2c(F)c(-c3ccc(F)c4sc(N)c(C#N)c34)c(C(F)(F)F)cc12)[C@@H]1CC(=O)N(C2CC2)C1    > 7.00
[2H]C1([2H])CN2C[C@H](F)C[C@]2(COc2nc(N(C)[C@@H]3CCN(C(=O)C4CC4)[C@@H]3C)c3cc(C(F)(F)F)c(-c4ccc(F)c5sc(N)c(C#N)c45)c(F)c3n2)C1    6.00 to 7.00
CC(=O)N1C2CCC1CN(c1nc(OC[C@@]34CCCN3C[C@H](F)C4)nc3c(F)c(-c4ccc(F)c5sc(N)c(C#N)c45)c(C(F)(F)F)cc13)C2    6.00 to 7.00
CN(c1nc(OC[C@@]23CCCN2C[C@H](F)C3)nc2c(F)c(-c3ccc(F)c4sc(N)c(C#N)c34)c(C(F)(F)F)cc12)[C@H]1CCCOC1    6.00 to 7.00

Recorded pIC50 (compound N#Cc1cc2n(n1)CCN(c1nc(OC[C@@]34CCCN3C[C@H](F)C4)nc3c(F)c(-c4ccc(F)c5sc(N)c(C#N)c45)c(C(F)(F)F)cc13)C2 ): 5.00 to 6.00

* * *

# IC50 per record follows
tested_system: Avi-KRAS G12R (1-169) GppNHp/RAF1 RBD-3xFLAG (52-151) (Homo sapiens, UniProt P01116, G12R)
Construct: Avi-KRAS G12R (1-169)
Sequence (P01116 1-169 isoform P01116-2 G12R): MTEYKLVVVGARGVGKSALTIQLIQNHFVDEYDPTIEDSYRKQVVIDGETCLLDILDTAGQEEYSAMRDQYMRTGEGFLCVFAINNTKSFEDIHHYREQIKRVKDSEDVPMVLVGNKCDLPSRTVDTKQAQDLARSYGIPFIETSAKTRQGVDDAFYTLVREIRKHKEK
test: Raf1-KRAS G12R-GppNHP disruption HTRF assay (Biological Example 1)
Format: binding
reported_conditions: KRAS G12R, GppNHp-loaded; Table 11

CCN(c1nc(OC[C@@]23CCCN2C[C@H](F)C3)nc2c(F)c(-c3ccc(F)c4sc(N)c(C#N)c34)c(C(F)(F)F)cc12)[C@@H]1CCN(C(C)=O)[C@@H]1COC    0.1 to 1 µM
C[C@]1(O)CCCN(c2nc(OC[C@@]34CCCN3C[C@H](F)C4)nc3c(F)c(-c4ccc(F)c5sc(N)c(C#N)c45)c(C(F)(F)F)cc23)C1    0.1 to 1 µM
N#Cc1c(N)sc2c(F)ccc(-c3c(C(F)(F)F)cc4c(N5CC(F)(F)C5)nc(OC[C@@]56CCCN5C[C@H](F)C6)nc4c3F)c12    0.1 to 1 µM

# compound CN(c1nc(OC[C@@]23CCCN2C[C@H](F)C3)nc2c(F)c(-c3ccc(F)c4sc(N)c(C#N)c34)c(C(F)(F)F)cc12)[C@H]1CCN(S(C)(=O)=O)C1 ; its IC50 = 1 to 10 µM

Value of measured IC50 for the entry N#Cc1c(N)sc2c(F)ccc(-c3c(C(F)(F)F)cc4c(N5C[C@H](F)[C@@H](F)C5)nc(OC[C@@]56CCCN5C[C@H](F)C6)nc4c3F)c12 : 0.1 to 1 µM

CN(c1nc(OC[C@@]23CCCN2C[C@H](F)C3)nc2c(F)c(-c3ccc(F)c4sc(N)c(C#N)c34)c(C(F)(F)F)cc12)[C@@H]1CCOC1 has a reported IC50 of 0.1 to 1 µM

IC50 reading for Nc1nc2c(-c3c(C(F)(F)F)cc4c(N5CCC(CO)C5)nc(OCC56CCCN5CCC6)nc4c3F)ccc(F)c2s1 (stereo not shown) : > 10 µM

IC50 reading for CCC(=O)N1CC[C@@H](N(C)c2nc(OC[C@@]34CCCN3C[C@H](F)C4)nc3c(F)c(-c4ccc(F)c5sc(N)c(C#N)c45)c(C(F)(F)F)cc23)[C@H]1C [Compound 260] : < 0.1 µM

Lab note: N#Cc1c(N)sc2c(F)ccc(-c3c(C(F)(F)F)cc4c(N5CCC5)nc(OC[C@@]56CCCN5C[C@H](F)C6)nc4c3F)c12 gave IC50 of 0.1 to 1 µM

Kindly note the recorded IC50 for CN(C)C(=O)CN(C)c1nc(OC[C@@]23CCCN2C[C@H](F)C3)nc2c(F)c(-c3ccc(F)c4sc(N)c(C#N)c34)c(C(F)(F)F)cc12 , which is 1 to 10 µM

Noted for C[C@@H](CO)N(C)c1nc(OC[C@@]23CCCN2C[C@H](F)C3)nc2c(F)c(-c3ccc(F)c4sc(N)c(C#N)c34)c(C(F)(F)F)cc12 : its IC50 reads 0.1 to 1 µM

Record N#Cc1c(N)sc2c(F)ccc(-c3c(C(F)(F)F)cc4c(N5CC6CC(C5)O6)nc(OC[C@@]56CCCN5C[C@H](F)C6)nc4c3F)c12 (single isomer, unassigned) [Compound 275] . Reported IC50: 0.1 to 1 µM

compound CC(=O)N1CC[C@H](N(C)c2nc(OC[C@@]34CCCN3C[C@H](F)C4)nc3c(F)c(-c4ccc(F)c5sc(N)c(C#N)c45)c(C(F)(F)F)cc23)[C@H]1C , IC50 observed: 0.1 to 1 µM

Field IC50 (entry C[C@@]1(O)CCCN(c2nc(OC[C@@]34CCCN3C[C@H](F)C4)nc3c(F)c(-c4ccc(F)c5sc(N)c(C#N)c45)c(C(F)(F)F)cc23)C1 ) reads 0.1 to 1 µM

* * *

tested_system: Avi-KRAS G12V (1-169) GppNHp/RAF1 RBD-3xFLAG (52-151) (Homo sapiens, UniProt P01116, G12V)
Construct: Avi-KRAS G12V (1-169)
Sequence (P01116 1-169 isoform P01116-2 G12V): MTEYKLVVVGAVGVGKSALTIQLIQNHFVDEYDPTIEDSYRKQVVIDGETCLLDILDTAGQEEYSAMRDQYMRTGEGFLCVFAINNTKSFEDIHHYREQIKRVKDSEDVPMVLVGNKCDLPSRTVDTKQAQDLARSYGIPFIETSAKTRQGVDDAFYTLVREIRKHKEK
test: Raf1-KRAS G12V-GppNHP disruption HTRF assay (Biological Example 1)
Type: binding
reported_conditions: KRAS G12V, GppNHp-loaded; Table 11
pIC50: −log10 of the molar value.
Below is a list of entries, each paired with its recorded pIC50 value.

N#Cc1c(N)sc2c(F)ccc(-c3c(C(F)(F)F)cc4c(N5CC6CC(C5)O6)nc(OC[C@@]56CCCN5C[C@H](F)C6)nc4c3F)c12 [Compound 145]    6.00 to 7.00
CNC(=O)CN(C)c1nc(OC[C@@]23CCCN2C[C@H](F)C3)nc2c(F)c(-c3ccc(F)c4sc(N)c(C#N)c34)c(C(F)(F)F)cc12    6.00 to 7.00
CN(C)c1nc(OC[C@@]23CCCN2C[C@H](F)C3)nc2c(F)c(-c3ccc(F)c4sc(N)c(C#N)c34)c(C(F)(F)F)cc12    6.00 to 7.00

pIC50 reading for CN(c1nc(OC[C@@]23CCCN2C[C@H](F)C3)nc2c(F)c(-c3ccc(F)c4sc(N)c(C#N)c34)c(C(F)(F)F)cc12)C1CCC1 : 6.00 to 7.00

Consider CC(=O)N1CCN(c2nc(OC[C@@]34CCCN3C[C@H](F)C4)nc3c(F)c(-c4ccc(F)c5sc(N)c(C#N)c45)c(C(F)(F)F)cc23)C[C@@H]1CC#N . Its measured pIC50 is 5.00 to 6.00

Per the record, N#Cc1c(N)sc2c(F)ccc(-c3c(C(F)(F)F)cc4c(N5CC(CO)C5)nc(OC[C@@]56CCCN5C[C@H](F)C6)nc4c3F)c12 has pIC50 of 6.00 to 7.00

Reference for the values: patent US20260042764A1
